tested on: Staphylococcus aureus; assay: Antibacterial activity against Staphylococcus aureus ATCC 29213 assessed as decrease in bacterial growth incubated for 18 hrs by broth microdilution method; format: functional
Recorded Endpoint: MIC (µM)

INSERT INTO assay_data (compound, unit_name, obs_value) VALUES
  ('COc1ccc2cc3[n+](cc2c1OCC(O)Cn1cnc2cc(Br)ccc21)CCc1cc2c(cc1-3)OCO2.[Br-] (centres undefined)', 'µM', 98),
  ('COc1ccc2cc3[n+](cc2c1OCC(O)Cn1cnnc1)CCc1cc2c(cc1-3)OCO2.[Br-] (centres undefined)', 'µM', 243),
  ('COc1ccc2cc3[n+](cc2c1OCC(O)Cn1cnc2ccccc21)CCc1cc2c(cc1-3)OCO2.[Br-] (centres undefined)', 'µM', 56),
  ('COc1ccc2cc3[n+](cc2c1OCC(O)CN1CCCCC1)CCc1cc2c(cc1-3)OCO2.[Br-] (centres undefined)', 'µM', 236);

====

assay: Cytotoxicity against human FHC cells assessed as cell viability upto 0.100 mM incubated for 24 hrs by MTT assay; assay type: toxicity, cell-based; details: read-out: Activity
Recorded Endpoint: viability at 24 h (%)

INSERT INTO assay_data (compound, unit_name, obs_value) VALUES
  ('COc1ccc2cc3[n+](cc2c1OCC(O)Cn1c([N+](=O)[O-])cnc1C)CCc1cc2c(cc1-3)OCO2.[Br-] (configuration not stated)', '%', 70),
  ('COc1ccc2cc3[n+](cc2c1OCC(O)CSc1nc2ccccc2s1)CCc1cc2c(cc1-3)OCO2.[Br-] (configuration not stated)', '%', 70);

====

Listing: MIC of selected compounds
tested on: Staphylococcus aureus; experiment: Antibacterial activity against Staphylococcus aureus ATCC 29213 assessed as decrease in bacterial growth incubated for 18 hrs by broth microdilution method; assay type: functional
Recorded Endpoint: MIC (µM)

INSERT INTO measurements (compound, target_of_assay, unit_name, obs_value) VALUES
  ('CCN(CC)CC(O)COc1c(OC)ccc2cc3[n+](cc12)CCc1cc2c(cc1-3)OCO2.[Br-] (stereo not given)', 'Staphylococcus aureus', 'µM', 60),
  ('COc1ccc2cc3[n+](cc2c1OCC(O)CN(CCO)CCO)CCc1cc2c(cc1-3)OCO2.[Br-] (stereo not given)', 'Staphylococcus aureus', 'µM', 28),
  ('COc1ccc2cc3[n+](cc2c1OCC(O)Cn1ccnc1)CCc1cc2c(cc1-3)OCO2.[Br-] (stereo not given)', 'Staphylococcus aureus', 'µM', 124),
  ('COc1ccc2cc3[n+](cc2c1OCC(O)CSc1nc2ccccc2[nH]1)CCc1cc2c(cc1-3)OCO2.[Br-] (stereo not given)', 'Staphylococcus aureus', 'µM', 53),
  ('COc1ccc2cc3[n+](cc2c1OCC(O)CSc1nc2ccccc2s1)CCc1cc2c(cc1-3)OCO2.[Br-] (stereo not given)', 'Staphylococcus aureus', 'µM', 51);

====

test system: Acinetobacter baumannii; test: Antibacterial activity against Acinetobacter baumannii assessed as decrease in bacterial growth incubated for 18 hrs by broth microdilution method; type: functional
Cut-off 100 µM on MIC: below means TRUE, at or above means FALSE.

INSERT INTO measurements (compound, target_of_assay, assigned_label) VALUES
  ('COc1ccc2cc3[n+](cc2c1OCC(O)CSc1nc2ccccc2[nH]1)CCc1cc2c(cc1-3)OCO2.[Br-] (stereo not drawn)', 'Acinetobacter baumannii', 'TRUE'),
  ('COc1ccc2cc3[n+](cc2c1OCC(O)Cn1ccnc1-c1ccccc1)CCc1cc2c(cc1-3)OCO2.[Br-] (stereo not drawn)', 'Acinetobacter baumannii', 'TRUE'),
  ('COc1ccc2cc3[n+](cc2c1OC)CCc1cc2c(cc1-3)OCO2', 'Acinetobacter baumannii', 'FALSE'),
  ('COc1ccc2cc3[n+](cc2c1OCC(O)CN1CCNCC1)CCc1cc2c(cc1-3)OCO2.[Br-] (stereo not drawn)', 'Acinetobacter baumannii', 'FALSE'),
  ('COc1ccc2cc3[n+](cc2c1OCC(O)CSc1nccn1C)CCc1cc2c(cc1-3)OCO2.[Br-] (stereo not drawn)', 'Acinetobacter baumannii', 'TRUE'),
  ('COc1ccc2cc3[n+](cc2c1OCC(O)CN1CCOCC1)CCc1cc2c(cc1-3)OCO2.[Br-] (stereo not drawn)', 'Acinetobacter baumannii', 'FALSE'),
  ('COc1ccc2cc3[n+](cc2c1OCC(O)CN1CCCCC1)CCc1cc2c(cc1-3)OCO2.[Br-] (stereo not drawn)', 'Acinetobacter baumannii', 'FALSE');

====

test system: Acinetobacter baumannii; assay: Antibacterial activity against Acinetobacter baumannii assessed as decrease in bacterial growth incubated for 18 hrs by broth microdilution method; assay type: functional
Recorded Endpoint: MIC (µM)

INSERT INTO measurements (compound, obs_value) VALUES
  ('CCn1cc(C(=O)O)c(=O)c2cc(F)c(N3CCNCC3)cc21', 6),
  ('CCN(CC)CC(O)COc1c(OC)ccc2cc3[n+](cc12)CCc1cc2c(cc1-3)OCO2.[Br-] (stereo not drawn)', 60),
  ('COc1ccc2cc3[n+](cc2c1OCC(O)Cn1cc(C=O)c2ccccc21)CCc1cc2c(cc1-3)OCO2.[Br-] (stereo not drawn)', 106),
  ('COc1ccc2cc3[n+](cc2c1OCC(O)Cn1nnc2ccccc21)CCc1cc2c(cc1-3)OCO2.[Br-] (stereo not drawn)', 111),
  ('COc1ccc2cc3[n+](cc2c1OCC(O)Cn1cnnc1)CCc1cc2c(cc1-3)OCO2.[Br-] (stereo not drawn)', 243),
  ('COc1ccc2cc3[n+](cc2c1OCC(O)Cn1cnc2ccccc21)CCc1cc2c(cc1-3)OCO2.[Br-] (stereo not drawn)', 56),
  ('COc1ccc2cc3[n+](cc2c1OCC(O)CSc1nc2ccccc2s1)CCc1cc2c(cc1-3)OCO2.[Br-] (stereo not drawn)', 26),
  ('CCN(CCO)CC(O)COc1c(OC)ccc2cc3[n+](cc12)CCc1cc2c(cc1-3)OCO2.[Br-] (stereo not drawn)', 468),
  ('COc1ccc2cc3[n+](cc2c1OCC(O)CSc1nnnn1C)CCc1cc2c(cc1-3)OCO2.[Br-] (stereo not drawn)', 56),
  ('COc1ccc2cc3[n+](cc2c1OCC(O)Cn1c([N+](=O)[O-])cnc1C)CCc1cc2c(cc1-3)OCO2.[Br-] (stereo not drawn)', 14),
  ('COc1ccc2cc3[n+](cc2c1OCC(O)CN(CCO)CCO)CCc1cc2c(cc1-3)OCO2.[Br-] (stereo not drawn)', 114),
  ('COc1ccc2cc3[n+](cc2c1OCC(O)CN1CCCC1)CCc1cc2c(cc1-3)OCO2.[Br-] (stereo not drawn)', 121),
  ('COc1ccc2cc3[n+](cc2c1OCC(O)Cn1cnc2cc([N+](=O)[O-])ccc21)CCc1cc2c(cc1-3)OCO2.[Br-] (stereo not drawn)', 103),
  ('COc1ccc2cc3[n+](cc2c1OCC(O)CSc1nc[nH]n1)CCc1cc2c(cc1-3)OCO2.[Br-] (stereo not drawn)', 114),
  ('COc1ccc2cc3[n+](cc2c1OCC(O)CSc1nnc(C)s1)CCc1cc2c(cc1-3)OCO2.[Br-] (stereo not drawn)', 108),
  ('COc1ccc2cc3[n+](cc2c1OCC(O)Cn1ccnc1)CCc1cc2c(cc1-3)OCO2.[Br-] (stereo not drawn)', 61),
  ('COc1ccc2cc3[n+](cc2c1OCC(O)Cn1cnc([N+](=O)[O-])c1)CCc1cc2c(cc1-3)OCO2.[Br-] (stereo not drawn)', 112),
  ('COc1ccc2cc3[n+](cc2c1OCC(O)Cn1nnnc1C)CCc1cc2c(cc1-3)OCO2.[Br-] (stereo not drawn)', 121);

====

Below is a list of entries, each paired with its recorded solubility value.
assay: Aqueous solubility of the compound in saline; type: physicochemical
Recorded Endpoint: solubility

INSERT INTO results (molecule, obs_value) VALUES
  ('CCN(CCO)CC(O)COc1c(OC)ccc2cc3[n+](cc12)CCc1cc2c(cc1-3)OCO2.[Br-] (configuration not stated)', '3720 µM'),
  ('CCN(CC)CC(O)COc1c(OC)ccc2cc3[n+](cc12)CCc1cc2c(cc1-3)OCO2.[Br-] (configuration not stated)', '3320 µM'),
  ('COc1ccc2cc3[n+](cc2c1OCC(O)Cn1cc(C=O)c2ccccc21)CCc1cc2c(cc1-3)OCO2.[Br-] (configuration not stated)', '790 µM'),
  ('COc1ccc2cc3[n+](cc2c1OCC(O)CSc1nc[nH]n1)CCc1cc2c(cc1-3)OCO2.[Br-] (configuration not stated)', '801 µM'),
  ('COc1ccc2cc3[n+](cc2c1OCC(O)CN1CCNCC1)CCc1cc2c(cc1-3)OCO2.[Br-] (configuration not stated)', '3810 µM'),
  ('COc1ccc2cc3[n+](cc2c1OCC(O)Cn1ccnc1-c1ccccc1)CCc1cc2c(cc1-3)OCO2.[Br-] (configuration not stated)', '701 µM'),
  ('COc1ccc2cc3[n+](cc2c1OCC(O)Cn1cnc2cc([N+](=O)[O-])ccc21)CCc1cc2c(cc1-3)OCO2.[Br-] (configuration not stated)', '895 µM'),
  ('COc1ccc2cc3[n+](cc2c1OCC(O)Cn1nnc2ccccc21)CCc1cc2c(cc1-3)OCO2.[Br-] (configuration not stated)', '1720 µM'),
  ('COc1ccc2cc3[n+](cc2c1OCC(O)Cn1cnc([N+](=O)[O-])c1)CCc1cc2c(cc1-3)OCO2.[Br-] (configuration not stated)', '936 µM'),
  ('COc1ccc2cc3[n+](cc2c1OCC(O)Cn1cnc2ccccc21)CCc1cc2c(cc1-3)OCO2.[Br-] (configuration not stated)', '1720 µM'),
  ('COc1ccc2cc3[n+](cc2c1OCC(O)Cn1nnnc1C)CCc1cc2c(cc1-3)OCO2.[Br-] (configuration not stated)', '2150 µM'),
  ('COc1ccc2cc3[n+](cc2c1OCC(O)Cn1cnc2cc(Br)ccc21)CCc1cc2c(cc1-3)OCO2.[Br-] (configuration not stated)', '774 µM'),
  ('COc1ccc2cc3[n+](cc2c1OCC(O)CSc1nc2ccccc2s1)CCc1cc2c(cc1-3)OCO2.[Br-] (configuration not stated)', '770 µM'),
  ('COc1ccc2cc3[n+](cc2c1OCC(O)Cn1c([N+](=O)[O-])cnc1C)CCc1cc2c(cc1-3)OCO2.[Br-] (configuration not stated)', '908 µM'),
  ('COc1ccc2cc3[n+](cc2c1OCC(O)CSc1nnc(C)s1)CCc1cc2c(cc1-3)OCO2.[Br-] (configuration not stated)', '1180 µM'),
  ('COc1ccc2cc3[n+](cc2c1OCC(O)CSc1nccn1C)CCc1cc2c(cc1-3)OCO2.[Br-] (configuration not stated)', '791 µM'),
  ('COc1ccc2cc3[n+](cc2c1OCC(O)CSc1nnnn1C)CCc1cc2c(cc1-3)OCO2.[Br-] (configuration not stated)', '992 µM');
